experiment: qHTS profiling for inhibitors of Plasmodium falciparum proliferation (AID 504749);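 also: 0% = DMSO vehicle and full inhibition = artemisinin control; nearly all actives have a fitted effect of over 60% in size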; details: P. falciparum in erythrocytes, SYBR Green DNA, 72 h; at 28.7 µM (top of the series); parasite line B
Results filed as inconclusive are left out.
Reported activity, negative = inhibition values are given for each entry in this list.
Use % as the unit, but write only the number.

{"columns": ["compound", "activity, negative = inhibition (%)"],
 "data": [
  ["CCCCCCCCCCCCCCCCCC(=O)OC[C@@H](O)[C@H]1OC[C@H](O)[C@H]1O", -8.53],
  ["CSCCC(N)C(=O)O (configuration not stated)", 15.2],
  ["NC(=O)Oc1ccc(Cc2ccccc2)cc1", 4.41]
]}

I have this compound here, `COc1ccc(/C=C/C(=O)OCCC(C)C)cc1` , and I need its recorded activity, negative = inhibition.
14.5

What value of measured activity, negative = inhibition is listed for `ClC(Cl)Cl` ?
10.9

Fill blank: measured activity, negative = inhibition of the compound O=C(OC1C[C@@H]2CC3C[C@H](C1)N2CC3=O)c1c[nH]c2ccccc12 (some centres not stated) is ____.
-12.9

Data request, read-out activity, negative = inhibition, for O=C(CCCN1CCN2CCCC2C1)c1ccc(F)cc1 (configuration not stated)
7.07

---

experiment: P-glycoprotein substrates identified in KB-8-5-11 adenocarcinoma cell line, qHTS therapeutic library screen (AID 1346987); conditions: KB-8-5-11 (P-gp overexpressing) viability, CellTiter-Glo, 72 h; series mostly up to 44.5 µM; also: nearly all actives have a fitted effect of over 65% in size
Records with an inconclusive call do not appear. Active and inactive are the calls of the source. Calls come from the whole dose curve; as a rule, active = well fitted inhibition curve with a large enough effect; inconclusive = small, poorly fitted or top-dose-only effect; inactive = flat fitted curve, though single readings scatter.
Just give me one of these, please: 1 (yes) (active), 0 (no) (inactive)

Please let me know the test result on file for CC12CCC(C1)C(C)(C)C2=O (stereo not given) .
0 (no)

How did this test come out for `Cc1cc(-c2ccc(N=Nc3c(S(=O)(=O)O)cc4cc(S(=O)(=O)O)cc(N)c4c3O)c(C)c2)ccc1N=Nc1c(S(=O)(=O)O)cc2cc(S(=O)(=O)O)cc(N)c2c1O` ?
1 (yes)

Each compound tested received a call. Report the one for `CCCCO` .
0 (no)

# outcome recorded in this test, key = `CCCCCCCCCCCCCCCC(=O)OC[C@H](COP(=O)([O-])OCC[N+](C)(C)C)OC(=O)CCCCCCCCCCCCCCC`
0 (no)

Fill in: this test's call for `S=C=Nc1ccc(N=C=S)cc1` is ___
0 (no)

---

Recorded max response values for a group of compounds are listed next.
tested on: CRL-7250; assay: Cytotoxic Profiling of Annotated Libraries Using Quantitative High-Throughput Screening (AID 1296008); details: Five cell lines viability, CellTiter-Glo ATP luminescence, 48-72 h; hits give low values; also: % is scaled to controls: 0 for no effect and ±100 for the full control effect; nearly all actives have a fitted effect of over 60% in size
Inconclusive results are not listed.
Your answer should be a plain number; it is taken to be in %.

Here's what some known entries look like.
{"columns": ["compound", "target_entity", "unit_of_measure", "value_observed"],
 "data": [
  ["Oc1ccc(/C=C/c2cc(O)cc(O)c2)cc1", "CRL-7250", "%", -2.32],
  ["COc1ccc2nc(NC(=O)Nc3ccccc3)sc2c1", "CRL-7250", "%", 1.89],
  ["O=C1c2ccccc2C(=O)c2c1ccc(O)c2O", "CRL-7250", "%", -3.43],
  ["CC(C)(C)c1ccc(CN2CCN(C(c3ccccc3)c3ccc(Cl)cc3)CC2)cc1 (stereo not given)", "CRL-7250", "%", 1.08]
]}

What measured max response goes with `C=C1CC[C@H](O)CC1=C/C=C1\CCC[C@]2(C)[C@@H]([C@H](C)/C=C/[C@H](C)C(C)C)CC[C@@H]12` ?
-11.3
